System: Raji
Procedure Text: Tumor promoting activity in human Raji cells assessed as induction of EBV-early antigen activation at 1 uM after 48 hrs by FITC staining based indirect immunofluorescence assay
Format: cell-based
Readout Name: Activity

- Molecule: "C[C@H]1[C@@H]2C[C@@]3(O[C@H](CCC3(C)C)CC(=O)O[C@@H](CO)CC(=O)O2)O[C@@H]1CCCCc1cccc(O)c1"
  Readout Name: "Activity"
  Value Observed: "< 10%"
- Molecule: "CO[C@@H](CC[C@H](C)[C@H]1O[C@@]23C[C@H](OC(=O)C[C@H]([C@@H](C)O)OC(=O)C[C@](O)(O2)[C@H](C)CC3(C)C)[C@@H]1C)c1cccc(O)c1"
  Readout Name: "Activity"
  Value Observed: "Toxic"
- Molecule: "C[C@@H]1CC(C)(C)[C@@]23C[C@@H](C[C@@H](CCCCc4cccc(O)c4)O2)OC(=O)C[C@H](CO)OC(=O)C[C@@H]1O3"
  Readout Name: "Activity"
  Value Observed: "< 10%"
- Molecule: "CCCCCCCCCCCCCC(=O)O[C@@H]1[C@@H](C)[C@@]2(O)[C@@H](C=C(CO)C[C@]3(O)C(=O)C(C)=C[C@@H]23)[C@@H]2C(C)(C)[C@]12OC(C)=O [PHORBOL MYRISTATE ACETATE]"
  Readout Name: "Activity"
  Value Observed: "Toxic"
